# test-target: T1, Human TNFR2 recombinant protein (Sino 10417-H08H) (human, UniProt P20333 23-257)
# T1 construct: also called hTNFR2 (His tag)
# T1 sequence (looked up): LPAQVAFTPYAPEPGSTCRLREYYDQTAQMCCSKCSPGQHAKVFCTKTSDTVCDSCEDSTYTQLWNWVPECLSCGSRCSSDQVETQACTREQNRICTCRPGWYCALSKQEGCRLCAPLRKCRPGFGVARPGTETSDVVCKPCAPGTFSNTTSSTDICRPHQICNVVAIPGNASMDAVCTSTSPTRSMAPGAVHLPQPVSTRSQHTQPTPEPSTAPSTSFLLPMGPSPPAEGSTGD
# assay-details: SPR Biacore, antibody on Protein A chip, TNFR2 analyte
Entries annotated with measured koff
The reply should be a number in s⁻¹, with the unit left off.

Worked examples, 4 binders total:
binder	endpoint	endpoint-unit	assay-value
TNFR2 antibody #001 (antibody, V domains shown, also called antibody #1) VH: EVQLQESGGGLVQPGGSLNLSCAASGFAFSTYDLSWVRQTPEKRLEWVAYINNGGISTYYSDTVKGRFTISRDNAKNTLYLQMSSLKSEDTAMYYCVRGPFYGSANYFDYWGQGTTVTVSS VL: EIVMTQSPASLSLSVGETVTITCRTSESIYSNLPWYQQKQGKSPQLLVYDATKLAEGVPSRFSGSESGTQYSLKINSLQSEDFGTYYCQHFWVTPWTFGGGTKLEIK	koff	s⁻¹	8.95e-05
TNFR2 antibody #309 (antibody, V domains shown) VH: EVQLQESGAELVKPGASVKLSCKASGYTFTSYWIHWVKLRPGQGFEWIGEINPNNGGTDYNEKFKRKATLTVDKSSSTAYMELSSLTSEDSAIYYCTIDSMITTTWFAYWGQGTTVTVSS VL: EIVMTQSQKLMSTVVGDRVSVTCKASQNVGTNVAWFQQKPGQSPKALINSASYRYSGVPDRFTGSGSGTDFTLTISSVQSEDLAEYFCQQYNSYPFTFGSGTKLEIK	koff	s⁻¹	0.000748
TNFR2 antibody #088 (antibody, V domains shown) VH: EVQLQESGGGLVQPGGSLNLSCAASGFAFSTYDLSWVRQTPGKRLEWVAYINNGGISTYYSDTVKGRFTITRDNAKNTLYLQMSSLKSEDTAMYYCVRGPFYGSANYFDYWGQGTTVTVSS VL: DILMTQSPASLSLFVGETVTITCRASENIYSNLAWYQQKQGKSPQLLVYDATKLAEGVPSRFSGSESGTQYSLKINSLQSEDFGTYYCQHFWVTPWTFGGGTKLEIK	koff	s⁻¹	5.46e-05
TNFR2 antibody #226 (antibody, V domains shown) VH: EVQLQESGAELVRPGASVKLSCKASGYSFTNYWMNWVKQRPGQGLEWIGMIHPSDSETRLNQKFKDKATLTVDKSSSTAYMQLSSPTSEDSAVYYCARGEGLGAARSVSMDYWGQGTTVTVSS VL: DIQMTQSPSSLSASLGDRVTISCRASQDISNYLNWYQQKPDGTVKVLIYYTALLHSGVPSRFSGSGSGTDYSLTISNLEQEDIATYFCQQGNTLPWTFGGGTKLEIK	koff	s⁻¹	7.14e-05

Let us move to another entry and its koff.
// query Give the reported value of koff for this record: TNFR2 antibody #365 (antibody, V domains shown) VH: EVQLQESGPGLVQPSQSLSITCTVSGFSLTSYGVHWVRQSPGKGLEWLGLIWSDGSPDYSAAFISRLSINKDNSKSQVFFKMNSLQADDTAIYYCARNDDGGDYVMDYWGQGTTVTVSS VL: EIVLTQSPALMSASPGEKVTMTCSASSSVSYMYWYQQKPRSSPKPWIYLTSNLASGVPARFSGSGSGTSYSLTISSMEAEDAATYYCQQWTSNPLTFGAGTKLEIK
// result 0.00209
